Quick reference for pIC50 among some compounds
TARGET OR TEST SYSTEM: Progesterone receptor (Homo sapiens)
Sequence (P06401 whole entry): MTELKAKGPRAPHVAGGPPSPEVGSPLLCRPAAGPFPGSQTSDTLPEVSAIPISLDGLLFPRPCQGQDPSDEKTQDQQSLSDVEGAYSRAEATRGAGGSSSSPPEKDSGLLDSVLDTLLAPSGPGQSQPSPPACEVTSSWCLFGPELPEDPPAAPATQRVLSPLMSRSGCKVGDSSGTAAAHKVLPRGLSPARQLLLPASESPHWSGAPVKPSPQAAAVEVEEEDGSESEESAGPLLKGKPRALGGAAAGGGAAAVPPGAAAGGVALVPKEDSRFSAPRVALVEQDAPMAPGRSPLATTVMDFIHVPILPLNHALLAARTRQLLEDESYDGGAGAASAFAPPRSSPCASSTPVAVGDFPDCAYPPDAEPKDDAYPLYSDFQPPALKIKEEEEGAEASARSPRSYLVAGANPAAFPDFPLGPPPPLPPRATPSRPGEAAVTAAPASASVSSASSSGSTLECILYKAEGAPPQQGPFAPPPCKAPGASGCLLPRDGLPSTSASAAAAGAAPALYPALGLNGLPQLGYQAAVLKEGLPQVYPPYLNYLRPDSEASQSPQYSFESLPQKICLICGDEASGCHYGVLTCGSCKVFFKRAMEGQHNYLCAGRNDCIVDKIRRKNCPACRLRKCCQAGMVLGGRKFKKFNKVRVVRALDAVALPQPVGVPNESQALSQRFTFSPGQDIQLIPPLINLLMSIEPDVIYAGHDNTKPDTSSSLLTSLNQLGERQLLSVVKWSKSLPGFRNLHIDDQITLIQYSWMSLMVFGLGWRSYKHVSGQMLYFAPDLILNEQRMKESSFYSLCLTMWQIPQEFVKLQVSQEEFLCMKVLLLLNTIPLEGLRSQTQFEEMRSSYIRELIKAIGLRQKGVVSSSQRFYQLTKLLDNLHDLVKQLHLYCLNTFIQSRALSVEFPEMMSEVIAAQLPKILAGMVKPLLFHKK
MEASUREMENT PROTOCOL: Antagonist activity at progesterone receptor expressed in human T47 cells assessed as blockade of progesterone-induced alkaline phosphatase activity
Assay type: functional, cell-based
pIC50: −log10 of the molar value.

SMILES | QUAL | pIC50
C=CC[C@]1(O)CC[C@H]2[C@@H]3CCC4=CC(=O)CCC4=C3[C@@H](c3ccc(P(=O)(c4ccccc4)c4ccccc4)cc3)C[C@@]21C | = | 6.12
C=C1CCO[C@]12CC[C@H]1[C@@H]3CCC4=CC(=O)CCC4=C3[C@@H](c3ccc(P(C)(=O)O)cc3)C[C@@]12C | < | 6.00
CC#C[C@]1(O)CC[C@H]2[C@@H]3CCC4=CC(=O)CCC4=C3[C@@H](c3ccc(P(=O)(c4ccccc4)c4ccccc4)cc3)C[C@@]21C | = | 6.42
C=C1CCO[C@]12CC[C@H]1[C@@H]3CCC4=CC(=O)CCC4=C3[C@@H](c3ccc(P(=O)(OCC)OCC)cc3)C[C@@]12C | = | 8.00
C=CC[C@]1(O)CC[C@H]2[C@@H]3CCC4=CC(=O)CCC4=C3[C@@H](c3ccc(P(=O)(OCC)OCC)cc3)C[C@@]21C | = | 6.51
C[C@]12C[C@H](c3ccc(P(=O)(c4ccccc4)c4ccccc4)cc3)C3=C4CCC(=O)C=C4CC[C@H]3[C@@H]1CC[C@@]2(O)c1ccccc1 | = | 6.56
CC#C[C@]1(O)CC[C@H]2[C@@H]3CCC4=CC(=O)CCC4=C3[C@@H](c3ccc(P(C)(C)=O)cc3)C[C@@]21C | = | 7.00

====

TARGET OR TEST SYSTEM: hERG (KCNH2) (Homo sapiens)
Sequence (Q12809 whole entry): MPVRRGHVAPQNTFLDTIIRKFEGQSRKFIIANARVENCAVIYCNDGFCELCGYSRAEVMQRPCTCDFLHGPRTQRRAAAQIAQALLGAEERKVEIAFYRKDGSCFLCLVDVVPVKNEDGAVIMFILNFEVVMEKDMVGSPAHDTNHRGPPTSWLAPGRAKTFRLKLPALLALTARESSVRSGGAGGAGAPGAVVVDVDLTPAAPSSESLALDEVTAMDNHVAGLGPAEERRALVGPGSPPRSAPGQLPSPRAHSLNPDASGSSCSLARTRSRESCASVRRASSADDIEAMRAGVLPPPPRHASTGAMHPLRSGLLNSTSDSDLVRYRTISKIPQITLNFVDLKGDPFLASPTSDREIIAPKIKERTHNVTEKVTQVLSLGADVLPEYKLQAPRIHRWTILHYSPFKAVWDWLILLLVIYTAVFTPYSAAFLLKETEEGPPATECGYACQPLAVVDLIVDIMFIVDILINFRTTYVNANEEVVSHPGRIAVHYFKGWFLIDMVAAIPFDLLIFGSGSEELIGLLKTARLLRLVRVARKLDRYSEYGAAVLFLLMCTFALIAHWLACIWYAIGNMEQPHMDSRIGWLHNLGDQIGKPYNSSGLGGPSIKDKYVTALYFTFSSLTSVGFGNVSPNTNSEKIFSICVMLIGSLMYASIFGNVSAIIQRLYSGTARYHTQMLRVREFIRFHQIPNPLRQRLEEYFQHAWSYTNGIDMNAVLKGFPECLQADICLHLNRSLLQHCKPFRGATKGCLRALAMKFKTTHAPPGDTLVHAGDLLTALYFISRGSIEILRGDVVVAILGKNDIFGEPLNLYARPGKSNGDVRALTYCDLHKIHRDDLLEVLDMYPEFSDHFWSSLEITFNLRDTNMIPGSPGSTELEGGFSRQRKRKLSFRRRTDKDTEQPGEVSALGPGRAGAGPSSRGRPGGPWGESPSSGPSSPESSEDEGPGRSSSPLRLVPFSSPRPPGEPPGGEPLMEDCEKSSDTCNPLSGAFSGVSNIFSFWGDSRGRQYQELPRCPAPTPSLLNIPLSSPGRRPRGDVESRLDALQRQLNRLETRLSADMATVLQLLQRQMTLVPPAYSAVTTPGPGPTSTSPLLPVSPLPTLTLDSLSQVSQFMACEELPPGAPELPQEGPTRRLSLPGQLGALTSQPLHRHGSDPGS
MEASUREMENT PROTOCOL: Inhibition of hERG at 10 uM
Assay type: toxicity
OBSERVED PROPERTY: inhibition at 10 µM (%)

SMILES | TEST RESULT
C=CC[C@]1(O)CC[C@H]2[C@@H]3CCC4=CC(=O)CCC4=C3[C@@H](c3ccc(P(=O)(c4ccccc4)c4ccccc4)cc3)C[C@@]21C | 27.8

====

MEASUREMENT PROTOCOL: Half life in mouse at 10 mg/kg, po
Format: ADME, organism-based
Design: dose 10 mg/kg, route oral
COND: in vivo
Quick list: half-life per entry.

COMPOUND | half-life
C=CC[C@]1(O)CC[C@H]2[C@@H]3CCC4=CC(=O)CCC4=C3[C@@H](c3ccc(P(=O)(c4ccccc4)c4ccccc4)cc3)C[C@@]21C | 2.2 h
CC#C[C@]1(O)CC[C@H]2[C@@H]3CCC4=CC(=O)CCC4=C3[C@@H](c3ccc(N(C)C)cc3)C[C@@]21C [MIFEPRISTONE] | 2.8 h

====

MEASUREMENT PROTOCOL: Metabolic stability in monkey microsomes assessed as half life
Format: ADME, Macaca mulatta, Microsome
COND: rhesus monkey
OBSERVED PROPERTY: half-life (min)

SMILES | TEST RESULT
C=CC[C@]1(O)CC[C@H]2[C@@H]3CCC4=CC(=O)CCC4=C3[C@@H](c3ccc(P(=O)(c4ccccc4)c4ccccc4)cc3)C[C@@]21C | 8

====

MEASUREMENT PROTOCOL: Metabolic stability in mouse microsomes assessed as half life
Assay type: ADME, Microsome

SMILES | half-life
C=CC[C@]1(O)CC[C@H]2[C@@H]3CCC4=CC(=O)CCC4=C3[C@@H](c3ccc(P(=O)(c4ccccc4)c4ccccc4)cc3)C[C@@]21C | 28 min
